B1: HDV Ribozyme (parent)
chain: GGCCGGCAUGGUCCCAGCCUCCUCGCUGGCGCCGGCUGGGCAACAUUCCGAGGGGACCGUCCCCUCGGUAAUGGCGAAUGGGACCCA

Variants of: B1
Experiment: self-cleavage, relative activity (ratio to wild type); higher = more cleavage; co-transcriptional
Quick rule: self-cleavage of at least 0.6 means criterion met, below that means criterion not met.

U60C C64A    criterion met
C18G U69C    criterion not met
G29A C66A    criterion not met
G29C G40A    criterion not met
U12C U27G    criterion not met
U12C G40U    criterion not met
G17U G53A    criterion met
C21A A78G    criterion not met
A78C A83G    criterion not met
C66A C85U    criterion met
